assay: Antiproliferative activity against human skin fibroblast assessed as cell viability at 50 uM by MTT assay; type: cell-based; settings: human skin fibroblasts, read-out: Activity
Measured parameter: viability at 50 µM (%)

• Clc1ccc(N2CCn3c(COc4ccc(Cl)cc4Cl)nnc32)cc1 = 83.9
• Cc1ccc(N2CCn3c(COc4ccc(Cl)cc4C)nnc32)cc1 = 56.9
• Clc1ccc(N2CCn3cnnc32)cc1 = 90.9
• c1ccc(OCc2nnc3n2CCN3c2ccccc2)cc1 = 87.6
• Cc1ccc(N2CCn3c(COc4ccc(Cl)cc4)nnc32)cc1 = 68.4
• c1ccc(N2CCn3cnnc32)cc1 = 89.5
• COc1ccc(N2CCn3c(COc4ccc(Cl)cc4)nnc32)cc1 = 67.1
• Clc1ccc(OCc2nnc3n2CCN3c2ccc(Cl)cc2)cc1 = 63.8
• Cc1cc(Cl)ccc1OCc1nnc2n1CCN2c1ccc(Cl)cc1 = 74
• COc1ccc(N2CCn3cnnc32)cc1 = 95.2
• Cc1cc(Cl)ccc1OCc1nnc2n1CCN2c1ccccc1 = 76.8
